# Procedure text: NCI Yeast Anticancer Drug Screen. Data for the rad50 strain (AID 155);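 note: 0% = growth of vehicle-only cultures of the same strain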
# Test conditions: S. cerevisiae rad50 strain growth inhibition, stronger effect = higher value; at 50.0 µM unless noted
# Method: Growth inhibition of yeast strains with defined genetic alterations is measured as a screen for potential anti-cancer activity. Selected strains with alterations in DNA damage repair or cell cycle control were exposed to compounds and growth inhibition was measured relative to vehicle treated controls. The strain used in this assay is rad50
About 79,000 compounds went through this panel and 15% of them were active in at least one assay; those are over-represented in the sample as a whole.
Listed here: items and their measured growth inhibition.

{"columns": ["Molecule", "growth inhibition / %"],
 "data": [
  ["CN(C)c1ccc(/C=C/C=C2\\C=Cc3ccccc32)cc1", 0.55],
  ["CCOC(C)C(Nc1ccc(C(=O)O)cc1)C(=O)Nc1ccc(C(=O)O)cc1 (stereo unspecified)", 9.8],
  ["CCOC(=O)Cn1c(=O)[nH]c(=O)c2c1ncn2Cc1ccccc1", 32.9],
  ["CCN(CCOC)C(C)=O", 2.15],
  ["CCc1cccc(CC)c1NC(=O)OCCN(CC)CC", -3.8],
  ["ClCc1ccccc1C(c1ccccc1)c1ccccc1", -0.8]
]}

###

# Procedure text: NCI Yeast Anticancer Drug Screen. Data for the rad50 strain (AID 155);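 note: 0% = growth of vehicle-only cultures of the same strain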
# Test conditions: S. cerevisiae rad50 strain growth inhibition, stronger effect = higher value; at 50.0 µM unless noted
Compounds without any hit were thinned out: in the full panel of roughly 79,000, 15% have a hit.

{"columns": ["Molecule", "Output unit", "growth inhibition"],
 "data": [
  ["CN(C)/N=C/C=C1\\N=C(c2ccccc2)OC1=O", "%", 5.75],
  ["Cc1ccc(C(=O)CC(Sc2ccccc2N)c2c(Cl)cccc2Cl)c(C)c1 (stereo not given)", "%", -7.4],
  ["O=S(=O)(c1ccc(Cl)cc1)S(=O)(=O)c1ccc(Cl)cc1", "%", 18.8],
  ["O=C(Nc1ccc(O)cc1)c1ccc([N+](=O)[O-])cc1", "%", -1.75],
  ["O=Cc1cccc2ccc3cccc(C(=O)Cl)c3c12", "%", 20.4],
  ["CC(C)COC(=O)C(CC(C)C)NC(=O)C(C)O (stereo not given)", "%", 5.95],
  ["CC1=C(c2ccccc2)OC(c2ccccc2)=C[P+]1(c1ccccc1)c1ccccc1", "%", 97.8],
  ["CS(=O)(=O)Nc1c(-c2ccccc2)oc2ccccc2c1=O", "%", -12.1],
  ["O=C(O)CCNCCC(=O)O", "%", 8.45],
  ["COc1cc2c(cc1OC)C1C(C)c3ccc(OC)c(OC)c3CN1CC2 (stereo not given)", "%", 0.65],
  ["CNc1ccccc1C(=O)NCCCN", "%", -10.3],
  ["Nc1c(F)c(F)c(N=Nc2ccccc2)c(F)c1F", "%", 5.2],
  ["COc1ccc2ncccc2c1[N+](=O)[O-]", "%", -5.55],
  ["O=S(=O)(NCCSSCCNS(=O)(=O)c1ccccc1)c1ccccc1", "%", 45],
  ["Cc1cn(C2CC(O)C(CO)O2)c(=O)nc1N1CCSCC1 (stereo not given)", "%", 2.5],
  ["O=C1c2cccc3cc([N+](=O)[O-])cc(c23)C(=O)N1C(CO)(CO)CO", "%", 29.9],
  ["CCOC(=O)C1=C(C)O/C(=C/c2cccc(Cl)c2)C1=O", "%", 42],
  ["O=c1[nH]nc(-c2ccccc2)nc1/C(=N\\Nc1ccccc1)c1ccccc1", "%", 15.5],
  ["O=S1(=O)CS/C(=N\\C(=S)N(c2ccccc2)c2ccccc2)N1c1ccccc1", "%", 32.5],
  ["CC(=O)C(C(C)=O)=C1CCCC(O)O1 (stereo not given)", "%", 20.4],
  ["Cc1cc[nH]c(=O)c1[N+](=O)[O-]", "%", -12.3],
  ["CCN(CC)CCN=c1nc(/C=C\\C=C\\NN(C)C(=S)SC)c(C)nn1C", "%", -49.7],
  ["O=C(CCS(=O)(=O)CCC(=O)c1ccccc1)c1ccccc1", "%", -12.3],
  ["C#CCOCC(CCl)OC(=O)Nc1ccccc1 (stereo not given)", "%", 14.7],
  ["O=c1cc(C(F)(F)F)[nH]c2ccc(F)cc12", "%", 1.95]
]}

Value source: PubChem BioAssay (NCI)
